test system: rape; assay: Test B pre/postemergence rape; type: in vivo, Brassica napus; conditions: Postemergence, Rate 250 g/ha; scale 0 to 10, 0 no effect, 10 complete control
Assignment: determine reported Rape plant response rating for the given molecules.
Respond with the number and no other words.

Considering `CC(C)N(C(=O)n1oc(=O)n(-c2cccc3c2CCCC3)c1=O)c1ccc(F)cc1` , its Rape plant response rating with rape was recorded as 0

Considering `CC(C)N(C(=O)n1oc(=O)n(-c2ccccc2)c1=O)c1ccc(F)cc1` , its Rape plant response rating with rape was recorded as 0

Considering `CC(C)N(C(=O)n1oc(=O)n(-c2ccccc2C(F)(F)F)c1=O)c1ccc(F)cc1` , its Rape plant response rating with rape was recorded as 0

Considering `CCCn1c(=O)on(C(=O)N(c2ccccc2)C(C)C)c1=O` , its Rape plant response rating with rape was recorded as 4

Considering `CC(C)N(C(=O)n1oc(=O)n(Cc2cccs2)c1=O)c1ccc(F)cc1F` , its Rape plant response rating with rape was recorded as 2
